Every entry's value here was drawn from patent US20250346584A1.

# test_target: UniProt P41145
# test_protocol: OPRK1 antagonist assay (b-arrestin-2-TEV / b-lactamase reporter cell line, EC80 U-50488 challenge)
# Format: cell-based
# applied_conditions: read-out: IC50 nM (% inhib if other than 50%); antagonist mode vs EC80 U-50488; NA = not active at concentrations up to 10 μM
test_readout: IC50 (nM)
Your answer is read as nM, so omit the unit and give the number.

> print(dat)
                                   molecule  test.readout  reported.measurement
1  OCC1CN(c2nc3ccccc3cc2-c2ncccn2)CCC1NC1CCCCC1 (stereo not drawn)          IC50                    56

Entry Cc1ccc2nc(N3CCC(NC4CCCCC4)CC3)c(-c3nc(C)no3)cc2c1 ; IC50 = 3.5

Entry CCOC(=O)c1cc(C)c(C)nc1N1CC[C@@H](NC2CCCCC2)[C@H](O)C1 ; IC50 = 191

Entry COC1CN(c2nc3ccc(C)cc3cc2-c2nc(C)no2)CCC1NC1CCCC1 (stereo not drawn) ; IC50 = 0.5

Entry Cc1nc(-c2cc3cc(C)c(F)cc3nc2N2CCC(NC3CCCCC3)CC2)no1 ; IC50 = 13

Entry COC(=O)c1cc(I)cnc1N1CCC(NC2CCCC2)C(O)C1 (stereo not drawn) ; IC50 = 25

Entry COC(=O)c1cc2ccccc2nc1N1CCC(NC2CCCCC2)C(CO)C1 (stereo not drawn) ; IC50 = 37

Entry COC1CN(c2nc3ccc(C)cc3cc2-c2nc(C)no2)CCC1NC1CCOCC1 (stereo not drawn) ; IC50 = 1.9

---

# test_target: kappa opioid receptor (OPRK1) (Homo sapiens (Human), UniProt P41145)
# Sequence (P41145 whole entry): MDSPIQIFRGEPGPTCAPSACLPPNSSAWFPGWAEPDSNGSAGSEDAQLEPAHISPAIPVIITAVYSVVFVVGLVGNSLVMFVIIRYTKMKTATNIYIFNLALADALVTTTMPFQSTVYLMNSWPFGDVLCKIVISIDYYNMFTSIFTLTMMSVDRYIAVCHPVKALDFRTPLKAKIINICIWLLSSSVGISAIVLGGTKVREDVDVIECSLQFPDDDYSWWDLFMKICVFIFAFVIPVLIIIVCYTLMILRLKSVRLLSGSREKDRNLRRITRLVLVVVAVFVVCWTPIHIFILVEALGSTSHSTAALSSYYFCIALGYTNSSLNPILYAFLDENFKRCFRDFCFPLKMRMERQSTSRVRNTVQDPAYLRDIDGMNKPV
# test_protocol: OPRK1 antagonist assay (b-arrestin-2-TEV / b-lactamase reporter cell line, EC80 U-50488 challenge)
# Type: cell-based
# applied_conditions: read-out: IC50 nM (% inhib if other than 50%); antagonist mode vs EC80 U-50488; NA = not active at concentrations up to 10 μM
# strict inequality: IC50 < 100 nM yields y, everything else yields n

# example entries with known answers
> print(dat)
                                   compound  assigned.class
1  CC(C)OC(=O)c1cc(Br)cnc1N1CCC(NC2CCCCC2)CC1               n
2  Cc1noc(-c2cc3ccc(F)c(C)c3nc2N2CCC(NCC(C)C)CC2)n1               y
3  Cc1nc(-c2cc3ccc(F)c(C)c3nc2N2CCC(NCC(C)C)CC2)no1               n
4  COC1CN(c2ncc(Br)cc2C(C)=O)CCC1NC1CCCCC1 (centres unmarked)               n

Lab note: next compound to report on.
## Task Given COC(=O)c1cccnc1N1CCC(NC2CCOCC2)C(O)C1 (centres unmarked) , is recorded IC50 strictly lower than 100 nM?
## Result n

---

# test_target: kappa opioid receptor (OPRK1) (Homo sapiens (Human))
# test_protocol: OPRK1 antagonist assay (b-arrestin-2-TEV / b-lactamase reporter cell line, EC80 U-50488 challenge)
# Type: cell-based
# applied_conditions: read-out: IC50 nM (% inhib if other than 50%); antagonist mode vs EC80 U-50488; NA = not active at concentrations up to 10 μM
test_readout: IC50 (nM)
Your answer is read as nM, so omit the unit and give the number.

> print(dat)
                                   compound  reported.measurement
1  CCOC(=O)c1cc(C)c(C)nc1N1CCC(NC2CCCCC2)C(CO)C1 (stereo not drawn)                    35
2   CCO/N=C/c1cc(Br)cnc1N1CCC(NC2CCCCC2)CC1                  4000
3  Cc1ccc2nc(N3CCC(NC4CCOCC4)CC3)c(-c3nc(C4CC4)no3)cc2c1                    17

Entry COC1CN(c2nc3ccc(C)cc3cc2-c2noc(C)n2)CCC1NCC(C)C (stereo not drawn) ; IC50 = 69

Entry COC(=O)c1cc([N+](=O)[O-])cnc1N1CCC(NC2CCCCC2)CC1 ; IC50 = 6200

Entry CCc1cnc(N2CCC(NC3CCCCC3)C(O)C2)c(C(=O)OC)c1 (stereo not drawn) ; IC50 = 272

Entry COC1CN(c2nc3ccc(C)cc3cc2C(=O)N2CCCC2)CCC1NC1CCCCC1 (stereo not drawn) ; IC50 = 1340

Entry CC(=O)c1cc(Br)cnc1N1CC[C@@H](NC2CCCCC2)[C@H](O)C1 ; IC50 = 33

Entry Cc1ccc2nc(N3CCC(N(C)C4CCOCC4)CC3)c(-c3nc(C)no3)cc2c1 ; IC50 = 180

---

# test_target: UniProtKB P41145
# test_protocol: OPRK1 antagonist assay (b-arrestin-2-TEV / b-lactamase reporter cell line, EC80 U-50488 challenge)
# Assay type: cell-based
# applied_conditions: read-out: IC50 nM (% inhib if other than 50%); antagonist mode vs EC80 U-50488; NA = not active at concentrations up to 10 μM
In this scheme, each record receives a class according to its IC50; the ranges are group 1 = under 100 nM, group 2 = from 100 nM up to 500 nM, group 3 = 500 nM and over

# example entries with known answers
> print(dat)
                                   compound  assigned.class
1  COC(=O)c1cc(C)c(C)nc1N1CC[C@@H](NC2CCCCC2)[C@H](O)C1         group 2
2  Cc1ccc2nc(N3CCC(N[C@H]4CCCC[C@@H]4O)CC3)c(-c3ccncn3)cc2c1         group 3
3  COC(=O)c1cc(C)cnc1N1CCC(NC2CCCCC2)C(O)C1 (centres unmarked)         group 2

## Task Using the reported IC50, which band applies to COC(=O)c1cc(Br)cnc1N1CCC(NC2C3CC4CC(C3)CC2C4)CC1 (centres unmarked) ?
## Result group 3

## Task Using the reported IC50, which band applies to Cc1noc(-c2cc(Br)cnc2N2CC[C@@H](NC3CCCCC3)[C@H](O)C2)n1 ?
## Result group 1

## Task Using the reported IC50, which band applies to Cc1noc(-c2nc3ccccc3nc2N2CCC(NC3CCCCC3)C(CO)C2)n1 (centres unmarked) ?
## Result group 2

## Task Using the reported IC50, which band applies to Cc1noc(-c2cc(C3CC3)cnc2N2CC[C@@H](NC3CCCCC3)[C@H](O)C2)n1 ?
## Result group 3

## Task Using the reported IC50, which band applies to Cc1noc(-c2cc3ccccc3nc2N2CCC(NC3CCCCC3O)CC2)n1 (centres unmarked) ?
## Result group 1

## Task Using the reported IC50, which band applies to CO[C@H]1CN(c2nc3ccc(C)cc3cc2-c2nc(C)no2)CC[C@H]1NCC(C)C ?
## Result group 2

## Task Using the reported IC50, which band applies to Cc1noc(-c2cc3cc(F)ccc3nc2N2CC[C@@H](NC3CCCCC3)[C@H](O)C2)n1 ?
## Result group 1

---

# test_target: kappa opioid receptor (OPRK1) (Homo sapiens (Human))
# test_protocol: OPRK1 antagonist assay (b-arrestin-2-TEV / b-lactamase reporter cell line, EC80 U-50488 challenge)
# Format: cell-based
# applied_conditions: read-out: IC50 nM (% inhib if other than 50%); antagonist mode vs EC80 U-50488; NA = not active at concentrations up to 10 μM
In this scheme, each record receives a class according to its IC50; the ranges are lowest: < 60 nM; middle: ≥ 60 nM and < 4000 nM; highest: ≥ 4000 nM

# example entries with known answers
> print(dat)
                                   compound                               test.target  assigned.class
1  CO[C@H]1CN(c2nc3ccc(F)cc3cc2-c2nc(C)no2)CC[C@H]1NCC(C)C [compound 530]  kappa opioid receptor (OPRK1) (Homo sapiens (Human))         highest
2  COC(=O)c1cc(Br)cnc1N1CCC(NC2CCCC(O)C2)CC1 (stereo not drawn) [compound 10]  kappa opioid receptor (OPRK1) (Homo sapiens (Human))          middle

## Task Using the reported IC50, which band applies to COC(=O)c1cc(Br)cnc1N1CCC(NC2CCCCC2OC)CC1 (stereo not drawn) [compound 26] ?
## Result middle

## Task Using the reported IC50, which band applies to COC(=O)c1cccnc1N1CCC(NC2CCCCC2C)C(O)C1 (stereo not drawn) [compound 53] ?
## Result highest

---

# test_target: kappa opioid receptor (OPRK1) (Homo sapiens (Human), UniProt P41145)
# test_protocol: OPRK1 antagonist assay (b-arrestin-2-TEV / b-lactamase reporter cell line, EC80 U-50488 challenge)
# Format: cell-based
# applied_conditions: read-out: IC50 nM (% inhib if other than 50%); antagonist mode vs EC80 U-50488; NA = not active at concentrations up to 10 μM
As shown below, each of these compounds has a reported log10 IC50 value.
Log10 applied to IC50; unit prior to transform: nM.

> print(dat)
                                   compound  reported.measurement
1  COC(=O)c1cccnc1N1CC[C@@H](NC2CCCCC2)[C@H](O)C1                  3.76
2  COC(=O)c1cc(Br)cnc1N1CCC(NC2CCCCC2)C(OC)C1 (centres unmarked) [compound 122]                  2.10
3  COC1CN(c2nc3ccccc3cc2C2=NC(C)CO2)CCC1NC1CCCCC1 (centres unmarked)                  2.57

Entry COC(=O)c1cc(I)cnc1N1CC[C@@H](NC2CCCCC2)[C@H](O)C1 ; log10 IC50 = 1.38

Entry Cc1ccc2nc(N3CCC(NC4CCC(C)CC4)CC3)c(-c3nc(C)no3)cc2c1 (centres unmarked) ; log10 IC50 = -0.01
